Let's look at some compounds and their measured melting point.

get_value(item= CC(CCOc1ccc(OC(C)(C)C(=O)O)cc1)c1ccc(-c2ccccc2)cc1 (stereo not drawn) , readout=melting point) returns 120 to 122 °C

Consider CCC(C)(Oc1ccc(OC/C=C(\C)c2ccc(-c3ccccc3)cc2)cc1)C(=O)O (stereo not drawn) . Its measured melting point is 114 to 117 °C

Short answer for CC(C)(Oc1ccc(OCCc2ccc(-c3ccccc3)cc2)cc1)C(=O)O : melting point was 138 to 140 °C

Documented melting point of CCOC(=O)C(C)(C)Oc1ccc(OC/C=C(\C)c2ccc3c(c2)Cc2ccccc2-3)cc1 : 155 to 158 °C

Short answer for CCC(C)(Oc1ccc(OC/C=C(\C)c2ccc(-c3ccc(F)cc3)cc2)cc1)C(=O)O (stereo not drawn) : melting point was 122 to 125 °C

Given item C/C(=C\COc1ccc(OC2(C(=O)O)CCCC2)cc1)c1ccc(-c2ccccc2)cc1 , the value recorded as its melting point is 142 to 144 °C

Looking up CCOC(=O)C1(Oc2ccc(OC/C=C(\C)c3ccc(-c4ccccc4)cc3)cc2)CCCC1 , I found its melting point recorded as 112 to 114 °C

# melting point (compound: CCN1c2ccccc2Oc2ccc(/C(C)=C/COc3ccc(OC(C)(C)C(=O)O)cc3)cc21 ) is 114 to 116 °C

***
// field: melting point; key: CC(C)(Oc1ccc(OC/C=C/c2ccc(-c3ccccc3)cc2)cc1)C(=O)O ; value = 172 to 174 °C

melting point measured on C/C(=C\COc1ccc(OC(C)(C)C(=O)O)cc1)c1ccc2c(c1)Cc1ccccc1-2 = 155 to 158 °C

----------
Quick reference for melting point among some compounds

Here are 3 compounds together with their reported answers.
For reference, reported melting point for C/C(=C\CNc1ccc(OC(C)(C)C(=O)O)cc1)c1ccc(-c2ccccc2)cc1 stands at 184 to 188 °C

Reported melting point for C/C(=C\COc1ccc(OC(C)(C)C(=O)O)cc1)c1ccc(-c2ccc(C(F)(F)F)cc2)cc1 was 150 to 154 °C

Notebook: C/C(=C\COc1ccc(SC(C)(C)C(=O)O)cc1)c1ccc(-c2ccc(C(F)(F)F)cc2)cc1 , melting point read as 142 to 146 °C

Now, please, on to the next compound.
melting point reading for CC(C)(Oc1ccc(OCCCc2ccc(OS(C)(=O)=O)cc2)cc1)C(=O)O : 64 to 66 °C

----------
Below, each of the compounds is paired with its reported melting point value.

The compound listed as CC(C)(Oc1ccc(OC/C=C/c2ccc(OS(C)(=O)=O)cc2)cc1)C(=O)O shows melting point equal to 112 to 114 °C

Sure, the documented melting point for C/C(=C\COc1ccc(OC(C(=O)O)C(C)C)cc1)c1ccc(-c2ccccc2)cc1 (centres unmarked) is 136 to 140 °C

Recorded result, CC(C)C(Sc1ccc(OCCCc2ccc(OS(C)(=O)=O)cc2)cc1)C(=O)O (centres unmarked) , melting point: 115 to 118 °C

Short answer for C/C(=C\COc1ccc(OC(C)(C)C(=O)O)cc1)c1ccc(-c2cc(Cl)cc(Cl)c2)cc1 : melting point was 52 to 54 °C

Next up:
For record C/C(=C\COc1ccc(SC(C)(C)C(=O)O)cc1)c1ccc(-c2ccccc2)cc1 the listed melting point is 162 to 165 °C
